Let's look at some variants and their measured self-cleavage kobs at 10000 uM GlcN6P.
B1: glmS ribozyme (parent)
chain: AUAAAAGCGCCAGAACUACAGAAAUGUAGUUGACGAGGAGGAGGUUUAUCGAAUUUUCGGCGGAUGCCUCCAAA

# Variants of: B1
# experiment: self-cleavage kobs at 10000 uM GlcN6P; higher = faster cleavage; RNA array
# experimental.conditions: with glucosamine-6-phosphate
Fewer inactive variants are shown than the library holds.
Please state the figure in s⁻¹; there is no need to write the unit.

Consider the following illustrative entries.
- mutation.name: "A14U U57A"
  assay.metric: "self-cleavage kobs at 10000 uM GlcN6P"
  recorded.value: "5.69e-05"
- mutation.name: "G41U U46A"
  assay.metric: "self-cleavage kobs at 10000 uM GlcN6P"
  recorded.value: 0.000362
- mutation.name: "U31C U45C"
  assay.metric: "self-cleavage kobs at 10000 uM GlcN6P"
  recorded.value: 0.000327
- mutation.name: "U27G A42U"
  assay.metric: "self-cleavage kobs at 10000 uM GlcN6P"
  recorded.value: 0.000136
- mutation.name: "U31G G32A A64G"
  assay.metric: "self-cleavage kobs at 10000 uM GlcN6P"
  recorded.value: 0.00106

Next:
Problem: Give its self-cleavage kobs at 10000 uM GlcN6P value. Item: G29A U30A
Solution: 0.000862
